target: HLA-B*27:05; test: IEDB peptide-MHC binding, purified MHC/direct/fluorescence; filed as Kd, often an IC50 or EC50 that approximates it; bounds were set here for any values at or beyond the usual limits of such assays; details: source organism: Yersinia pestis
readout label: Kd (nM)

{"residue codes": "RYQRMTGGY", "endpoint value": 2930}

====

Entries and their Kd
molecular target: HLA-B*27:05; assay: IEDB peptide-MHC binding, purified MHC/direct/fluorescence; filed as Kd, often an IC50 or EC50 that approximates it; bounds were set here for any values at or beyond the usual limits of such assays; details: source organism: Mycobacterium tuberculosis

{"residue codes": "RPPMVTSGL", "Kd": "≥ 20 µM"}
{"residue codes": "MPRLSRNAA", "Kd": "≥ 20 µM"}

====

biological target: HLA-A*24:03; assay: IEDB peptide-MHC binding, purified MHC/direct/fluorescence; filed as Kd, often an IC50 or EC50 that approximates it; bounds were set here for any values at or beyond the usual limits of such assays; settings: source organism: Choclo virus
pKd: −log10 of the molar value.

{"residue codes": "KACDLAMCY", "pKd": "≤ 4.70"}

====

target: HLA-A*03:01; experiment: IEDB peptide-MHC binding, purified MHC/competitive/fluorescence; filed as Kd, often an IC50 or EC50 that approximates it; bounds were set here for any values at or beyond the usual limits of such assays; conditions: source organism: Streptococcus pneumoniae TIGR4
pKd: −log10 of the molar value.
readout label: pKd

{"residue codes": "CLSDEINHV", "endpoint value": "≤ 4.70"}

====

biological target: HLA-B*27:05; assay: IEDB peptide-MHC binding, purified MHC/direct/fluorescence; filed as Kd, often an IC50 or EC50 that approximates it; bounds were set here for any values at or beyond the usual limits of such assays; details: source organism: Haemophilus influenzae
pKd: −log10 of the molar value.
readout label: pKd

{"residue codes": "LAEQFSGEY", "readout label": "pKd", "endpoint value": "≤ 4.70"}

====

target: HLA-B*27:05; test: IEDB peptide-MHC binding, purified MHC/direct/fluorescence; filed as Kd, often an IC50 or EC50 that approximates it; bounds were set here for any values at or beyond the usual limits of such assays; conditions: source organism: Mammarenavirus brazilense
pKd: −log10 of the molar value.

{"residue codes": "EFKSRFFVM", "pKd": "≤ 4.70"}

====

target: HLA-A*02:12; assay: IEDB peptide-MHC binding, purified MHC/direct/fluorescence; filed as Kd, often an IC50 or EC50 that approximates it; bounds were set here for any values at or beyond the usual limits of such assays; details: source organism: Burkholderia mallei ATCC 23344
readout label: Kd

{"residue codes": "LARFPCNVI", "readout label": "Kd", "endpoint value": "≥ 20 µM"}

====

molecular target: HLA-B*40:01; experiment: IEDB peptide-MHC binding, purified MHC/direct/fluorescence; filed as Kd, often an IC50 or EC50 that approximates it; bounds were set here for any values at or beyond the usual limits of such assays; conditions: source organism: Francisella tularensis subsp. tularensis FSC033
pKd: −log10 of the molar value.

{"residue codes": "ETLDVFGPI", "pKd": "≤ 4.70"}

====

target: HLA-B*53:01; test: IEDB peptide-MHC binding, purified MHC/competitive/radioactivity; filed as Kd, often an IC50 or EC50 that approximates it; bounds were set here for any values at or beyond the usual limits of such assays; conditions: source organism: Mammarenavirus guanaritoense
pKd: −log10 of the molar value.
readout label: pKd

{"residue codes": "LPIFSEFVL", "assay system": "HLA-B*53:01", "readout label": "pKd", "endpoint value": 7.25}
